Data origin, for the record: patent US20250144067A1

system: NCI-H292 lung cancer cells; experiment: FDA drug screening, complete media vs cholesterol-free media with simvastatin (TABLE 2); type: cell-based, human; details: NCI-H292 cells, drug in cholesterol-free media with simvastatin 0.04 μM
Counter-ions that a name gives are not always drawn.
Hi there, I'd appreciate the recorded Cholesterol-free media + simvastatin (0.04 μM) for every entry that follows.
Respond numerically, and do not add a unit to the figure.

Q. Given CC(=O)SCC(Cc1ccccc1)C(=O)NCC(=O)OCc1ccccc1 (stereo not shown) [Racecadotril] , state its recorded Cholesterol-free media + simvastatin (0.04 μM).
A. 1.092

Q. Given C[C@@H]1O[C@@H]1P(=O)(O)O [Fosfomycin (calcium)] , state its recorded Cholesterol-free media + simvastatin (0.04 μM).
A. 1.093

Q. Given C[C@H](O)C(=O)O [L-Lactic acid] , state its recorded Cholesterol-free media + simvastatin (0.04 μM).
A. 1.063

Q. Given CC1CS(=O)(=O)CCN1/N=C/c1ccc([N+](=O)[O-])o1 (stereo not shown) [Nifurtimox] , state its recorded Cholesterol-free media + simvastatin (0.04 μM).
A. 1.357

Q. Given CC(C)(S)[C@@H](N)C(=O)O [Penicillamine] , state its recorded Cholesterol-free media + simvastatin (0.04 μM).
A. 1.252

Q. Given O=C(NC1CCN(CCCCC2(C(=O)NCC(F)(F)F)c3ccccc3-c3ccccc32)CC1)c1ccccc1-c1ccc(C(F)(F)F)cc1 [Lomitapide] , state its recorded Cholesterol-free media + simvastatin (0.04 μM).
A. 1.325

Q. Given CO/N=C(\C(=O)N[C@@H]1C(=O)N2C(C(=O)O)=CCS[C@H]12)c1csc(N)n1 [Ceftizoxime] , state its recorded Cholesterol-free media + simvastatin (0.04 μM).
A. 1.55

Q. Given CC(/C=C/C=C(\C)C(=O)O[C@@H]1O[C@H](CO[C@@H]2O[C@H](CO)[C@@H](O)[C@H](O)[C@H]2O)[C@@H](O)[C@H](O)[C@H]1O)=C\C=C\C=C(C)\C=C\C=C(/C)C(=O)O[C@@H]1O[C@H](CO[C@@H]2O[C@H](CO)[C@@H](O)[C@H](O)[C@H]2O)[C@@H](O)[C@H](O)[C@H]1O [Crocin] , state its recorded Cholesterol-free media + simvastatin (0.04 μM).
A. 1.135

Q. Given C=C1CCC2CC1C2(C)C (stereo not drawn) [β-Pinene] , state its recorded Cholesterol-free media + simvastatin (0.04 μM).
A. 1.724

Q. Given CCCCCCc1ccc(O)cc1O [Hexylresorcinol] , state its recorded Cholesterol-free media + simvastatin (0.04 μM).
A. 1.514

Q. Given CCCCC1OC(=O)c2ccccc21 (stereo not shown) [Butylphthalide] , state its recorded Cholesterol-free media + simvastatin (0.04 μM).
A. 1.292

Q. Given C=CCN1CCc2nc(N)sc2CC1 [Talipexole dihydrochloride] , state its recorded Cholesterol-free media + simvastatin (0.04 μM).
A. 1.333

Q. Given CCc1nc(N)nc(N)c1-c1ccc(Cl)cc1 [Pyrimethamine] , state its recorded Cholesterol-free media + simvastatin (0.04 μM).
A. 1.205

Q. Given C[C@H]1C[C@H]2[C@@H]3CCC4=CC(=O)C=C[C@]4(C)[C@H]3C(=O)C[C@]2(C)[C@@]1(O)C(=O)CO [Meprednisone] , state its recorded Cholesterol-free media + simvastatin (0.04 μM).
A. 1.224

Q. Given CC(C)(C)NCC(O)COc1cccc2c1CCC(=O)N2 (stereo not shown) [Carteolol hydrochloride] , state its recorded Cholesterol-free media + simvastatin (0.04 μM).
A. 1.125

Q. Given COc1cc2nccc(Oc3ccc(NC(=O)NC4CC4)c(Cl)c3)c2cc1C(N)=O [Lenvatinib] , state its recorded Cholesterol-free media + simvastatin (0.04 μM).
A. 1.178
